- Experiment: qHTS assay to identify small molecule antagonists of the retinoid-related orphan receptor gamma (ROR-gamma) signaling pathway - cell viability counter screen (AID 1159520); also: nearly all actives have a fitted effect of over 50% in size
- Recorded conditions: Tet-on RORgamma CHO cells viability, ATP luminescence, 16 h; series mostly up to 92.4 µM
Results filed as inconclusive are left out. Active and inactive are the calls of the source. Calls follow the shape of the dose curve; as a rule, active = well fitted cell-killing curve with a large enough effect in the repeat runs; inconclusive = weak or mixed curves, or effect the other way; inactive = no such curve, though single readings can be large or run the other way.
Measured property: activity, negative = cytotoxicity

These solved cases illustrate the format of a correct answer.
{"Molecule": "C=CCCC", "Measured property": "activity, negative = cytotoxicity", "Value": "inactive"}
{"Molecule": "CCC(=O)O[C@@H]1C[C@H]2CC[C@]1(C)C2(C)C", "Measured property": "activity, negative = cytotoxicity", "Value": "inactive"}
{"Molecule": "O=C(Cl)c1cc(Cl)cc(Cl)c1", "Measured property": "activity, negative = cytotoxicity", "Value": "inactive"}
{"Molecule": "CC(C)=CCCC(C)C=O (stereo not drawn)", "Measured property": "activity, negative = cytotoxicity", "Value": "inactive"}
{"Molecule": "Cc1ccc(Cl)c(OCC(O)CNC(C)(C)C)c1 (stereo not drawn)", "Measured property": "activity, negative = cytotoxicity", "Value": "inactive"}

Continue with the molecule presented below.
Provide one value: measured activity, negative = cytotoxicity of CCCCOC(=O)C(C)Oc1ccc(Oc2ccc(C(F)(F)F)cn2)cc1 (stereo not drawn)
inactive

###

- Experiment: qHTS assay to identify small molecule agonists of the TGF-beta/Smad signaling pathway - cell viability counter screen (AID 1346829); also: top concentration of the series differs between compounds; nearly all actives have a fitted effect of over 45% in size
- Recorded conditions: SBE-bla HEK293T viability, CellTiter-Glo luminescence, 5 h; series mostly up to 76.8 µM
- Source text: National Center for Advancing Translational Sciences [NCATS] NIH Chemical Genomics Center [NCGC] U.S. Environmental Protection Agency [EPA] National Institutes of Environmental Health Sciences [NIEHS] National Toxicology Program [NTP] U.S. Food and Drug Administration [FDA] Transforming growth factor beta (TGF-beta) superfamily consists of a large number of structurally related dimeric proteins that act as hormones or local mediators in regulating a wide range of biological functions. […]
Results filed as inconclusive are left out. Active and inactive are the calls of the source. Calls follow the shape of the dose curve; as a rule, active = well fitted cell-killing curve with a large enough effect in the repeat runs; inconclusive = weak or mixed curves, or effect the other way; inactive = flat fitted curve, though single readings scatter.
Measured property: activity change, negative = cytotoxicity

These solved cases illustrate the format of a correct answer.
{"Compound": "COc1ccc(C(=O)c2ccc(C)cc2)c(O)c1", "Measured property": "activity change, negative = cytotoxicity", "Value": "inactive"}
{"Compound": "O=c1[nH]nc(-c2ccc([N+](=O)[O-])o2)o1", "Measured property": "activity change, negative = cytotoxicity", "Value": "inactive"}
{"Compound": "O=C(C1CCCCC1)N1CC(=O)N2CCCc3ccccc3C2C1 (stereo not given)", "Measured property": "activity change, negative = cytotoxicity", "Value": "inactive"}
{"Compound": "C=Cc1ccc(C=C)cc1", "Measured property": "activity change, negative = cytotoxicity", "Value": "inactive"}

Continue with the compound presented below.
Provide one value: measured activity change, negative = cytotoxicity of CC(C)(Cc1c[nH]c2ccccc12)NCC(O)COc1ccccc1C#N (stereo not given)
inactive

###

- Experiment: qHTS assay to identify small molecule agonists of the progesterone receptor (PR) signaling pathway - cell viability counter screen (AID 1346799); also: nearly all actives have a fitted effect of over 45% in size; also: potency is read from the fitted curve at half-maximal effect
- Recorded conditions: PR-UAS-bla HEK293T viability, CellTiter-Glo luminescence, 16 h; series mostly up to 92.4 µM
Inconclusive results are not listed. Active and inactive are the calls of the source. The call rests on the fitted dose curve.
Measured property: Potency

{"Molecule": "CC(CCl)OC(C)CCl (stereo not given)", "Potency": "inactive"}
{"Molecule": "CNc1ccccc1", "Potency": "inactive"}
{"Molecule": "CCCCCCCCCC(C)C=O (stereo not given)", "Potency": "43.3 µM (active)"}
{"Molecule": "CC(C)(C)NCC(O)COc1ccc(NC(=O)NC2CCCCC2)cc1 (stereo not given)", "Potency": "inactive"}

Provide one value: measured Potency of Cc1ccc(Cl)c(OCC(O)CNC(C)(C)C)c1 (stereo not given)
inactive

Provide one value: measured Potency of CCC(C(=O)O)c1ccc(N2Cc3ccccc3C2=O)cc1 (stereo not given)
inactive

Provide one value: measured Potency of CCCC(=O)OCCC(C)C
inactive

Provide one value: measured Potency of Cc1c(-c2cccnc2)c2ccccc2n1CCCCC(=O)O
inactive

The origin of these recorded values is PubChem BioAssay (Tox21).
